B1: TPR t1 (parent)
chain: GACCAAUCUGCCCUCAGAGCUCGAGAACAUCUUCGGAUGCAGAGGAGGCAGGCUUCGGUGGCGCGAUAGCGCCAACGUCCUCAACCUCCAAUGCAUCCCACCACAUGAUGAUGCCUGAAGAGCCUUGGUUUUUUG

Variants of: B1
Protocol details: polymerase ribozyme fitness, log enrichment relative to wild type (log ratio); higher = more active; in vitro selection for triplet polymerase activity
Below, each entry is listed alongside its reported polymerase ribozyme fitness (log ratio).

Past entries and their recorded results:
Chain	polymerase ribozyme fitness (log ratio)
GACCAAUCUGCCCUCAGAGUUCGAGAACAUCUUCGGAUGCAGAGGAGGCAGGCUUCGGUGGCGCGAUAGCGCCAACGUCCUCAACCUCCAAUGCAUCCCUCCACAUGAUGAUGCCUGAAGAGCCUUGGUUUUUUG [C20U A100U]	-2
GACCAAUCUGCGCUCAGAGCUCGAGAACAUCUUCGGAUUCAGAGGAGGCAGGCUUCGGUGUCGCGAUAGCGCCAACGUCCUCAACCUCCAAUGCAUCCCACCACAUGAUGAUGCCUGAAGAGCCUUGGUUUUUUG [C12G G39U G61U]	0.0718
GACCAAUCGGCCCUCAGAGCUCGAGAACAUCUUCGGAUGCAGAGGAGGCAGGCUUCGGUUGUGCGAUAGCGGCAACGUCCUCAACCUCCAAUGCAUCCCACCACAUGAUGAUGCCUGAAGAGCCUUGGUUUUUUG [U9G G60U C62U C72G]	-2.01
GACCAAUCUGCCCUCAGAGCUCGAGAACAUCUUCGGAUGCAGAGGAGGCAGCCUUCGGUGGCGCGAUAGCGCCAACGUCCUCAACCUCCAAUGCAUCCCACCACAUGAUGAUGUCUGAAGAGCCUUUGUUUUAUG [G52C C114U G127U U133A]	-6.16
GACCAAUCUGCCCUCAGAGCUCGAGAACAUCUUCGGAUGCAGAGGAGGCAGGCUUCGGUGGCGCGAUAGCGCCAACGUCCUCAACCUCCAAUGCAUCCCACCACAUGAUGAUACCUGAAGAGGAUUGGUUUUUUG [G113A C123G C124A]	-3.66
GACCAAUCUGCCCUCAGAGCGAGAGAUCAUCUUCGGAUGCAGAGGAGGCAGGCUUCGGUGGCGCGAUAGCGCCAACGUCCUCAACCUCCAAUGCAUCCCACCACAUGAUGAUGCCUGAAGAGCCUUGGUUUUUUG [U21G C22A A27U]	-4.41
GACCAAUCUGCCCUCAGAGCUCGAGAACAUCUUCGGAUGCAGAGGAGGCAGGCUUCCGUGGCGCGAUAGCGCCAACGUCCUCAACCUCCAAUGCAUCCCACCACAUGAUGAUGCCCGAAGAGCCUUGGUUUUUUG [G57C U116C]	-0.186
GACCAAGCUGCCCUCAGAGCUCGAGAACAUCUUCGGAUGCAGAGGAGGCAGGCUUCGGUGGCGCGAUAGCGCCAACGGCGUCAACCUCCAAUGCAUCCCACCACAUGAUGAUGCCUGAAGAGCCUUGGUUUUUUU [U7G U78G C80G G135U]	-5.8

Turning now to a further variant:
Q. Requested read-out: polymerase ribozyme fitness (log ratio). Entry: GACCAAUCUGCCCUCAGAGCUCGAGAACAUCUUCGGAUGCAGAGGAGGCGGGCUUCGGUGGCGCGAUAGCGCAAACGUCCUCAACCUCCAAUGCAUCCCACCACAGGAUGAUGCCUGAAGAGCCUUGGUUUUUUG [A50G C73A U106G]
A. -1.39
